The entries below are paired with their reported pEC50.
target: T1, minipig insulin receptor (INSR) on CHOK1 cells (minipig, UniProt F1SCL0 28-758; F1SCL0 763-1382); test: flow cytometry on CHOK1 cells expressing the INSR ortholog; Fab, anti-human kappa FITC detection
T1 construct: Cells expressing minipig INSR; also called minipig INSR
Expect pEC50 as a plain number equal to -log10 of the molar concentration.

Notebook: XPA.15.247.2.011 Fab (Fab, V domains shown, Fab; also called XPA.15.247.011) VH: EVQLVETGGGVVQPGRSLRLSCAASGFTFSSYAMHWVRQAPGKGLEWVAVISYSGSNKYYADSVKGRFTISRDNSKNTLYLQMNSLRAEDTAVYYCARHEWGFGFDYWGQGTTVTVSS VL: DVVMTQSPLSLPVTLGQPASISCRSSHSLVYGDGNTYLNWFHQRPGQSPRRLIYKVSNRDSGVPDRFAGSGSGTDFTLKISRVEADDFGVFYCMQGTHWPYTFGQGTKLEIKR , pEC50 read as 8.24

***
Measured pEC50 of XPA.15.247 Fab (Fab, V domains shown, Monomeric Fab; also called Fab247; XPA.15.247 parent Fab) VH: EVQLVETGGGVVQPGRSLRLSCAASGFTFSSYAMHWVRQAPGKGLEWVAVISYDGSNKYYADSVKGRFTISRDNSKNTLYLQMNSLRAEDTAVYYCARHEWGFGMDVWGQGTTVTVSS VL: DVVMTQSPLSLSVTLGQPASISCRSSLSLVYGDENTYLNWFQQRPGQSPRRLLYKVSDRDSGVPDRFSGSGSGTDFTLKISRVEADDVGVYYCMQGTHWPYTFGQGTKLEIKR : 7.40

Summary for this binder, XPA.15.247.2.018 Fab (Fab, V domains shown, Monomeric Fab; also called XPA.247.2.018) VH: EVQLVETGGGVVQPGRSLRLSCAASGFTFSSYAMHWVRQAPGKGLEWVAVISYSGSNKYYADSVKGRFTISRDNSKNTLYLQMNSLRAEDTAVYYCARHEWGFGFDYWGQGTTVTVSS VL: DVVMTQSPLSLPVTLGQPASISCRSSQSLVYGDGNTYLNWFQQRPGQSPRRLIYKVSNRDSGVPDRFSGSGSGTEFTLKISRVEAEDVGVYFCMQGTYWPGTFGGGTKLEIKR : pEC50 is 8.70

Recorded pEC50 (binder XPA.15.247.2.014 Fab (Fab, V domains shown, Fab; also called XPA.15.247.014) VH: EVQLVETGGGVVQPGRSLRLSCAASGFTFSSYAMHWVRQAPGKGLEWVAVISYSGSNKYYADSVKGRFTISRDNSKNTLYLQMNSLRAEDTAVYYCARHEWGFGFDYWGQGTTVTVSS VL: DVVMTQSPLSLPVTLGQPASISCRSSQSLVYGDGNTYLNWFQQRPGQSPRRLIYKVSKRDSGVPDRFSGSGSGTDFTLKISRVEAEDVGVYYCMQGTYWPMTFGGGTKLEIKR ): 8.54

Hello, the source for this data is patent US20180251562A1, in case you need it.
